src = patent EP0353668A2

assay: in vivo; set-up: species or system Wistarratten; conditions: rat, po, 50 mg/kg
Endpoint Label: concentration at 1 h (ng/mL)
One number for each entry, in ng/mL.

What concentration at 1 h value was documented for this compound, COCCNC(=O)c1ccnc(C(=O)NCCOC)c1 ?
15600

----------
test: in vivo; set-up: species or system Wistarratten; conditions: rat, po, 50 mg/kg
Endpoint Label: concentration at 6 h (ng/mL)
Answers are plain numbers, in ng/mL.

What concentration at 6 h value was documented for this compound, COCCNC(=O)c1ccnc(C(=O)NCCOC)c1 ?
600

----------
assay: in vivo; set-up: species or system Wistarratten; conditions: rat, po, 50 mg/kg
Endpoint Label: concentration at 4 h (ng/mL)
Answers are plain numbers, in ng/mL.

What concentration at 4 h value was documented for this compound, COCCNC(=O)c1ccnc(C(=O)NCCOC)c1 ?
3300
